Measured values drawn from patent US9890103B2 for this set.

- experiment_notes: Extraction of mono- and dibasic acids from 0.1M aqueous solution into toluene or MMA/toluene mixtures
- Assay type: physicochemical
- condition_summary: Fraction of MMA in MMA/Toluene solvent mixture 1; equal volume; in %
value_kind: degree of extraction

Below: 4 compounds and their reported degree of extraction.
C=C(C)C(=O)O [MAA, Methacrylic Acid] ... 84.28
C=C(CC(=O)O)C(=O)O [IC, Itaconic Acid] ... 17.58
C/C=C/C(=O)O [CT, Crotonic Acid] ... 75.05
C/C(=C\C(=O)O)C(=O)O [MC, Mesaconic Acid] ... 63.45

1. CC(=O)C(=O)O [PY, Pyruvic Acid]
2. CC(C)(O)C(=O)O [HIB, Hydroxyisobutyric Acid]
INPUT: When 1 and 2 are compared, which has the higher number for degree of extraction? Please identify the chosen entry by its label.
OUTPUT: 2
(2: 23.9, 1: 10.71)
